System: NCI-H82;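 note: growth inhibition of NCI-H82 cells, measured with a cell viability readout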
Experiment: cells
Type: functional, cell-based
Conditions: Homo sapiens
Description: SANGER: Inhibition of human NCI-H82 cell growth in a cell viability assay.

compound: Cc1cc([C@@H](C)Nc2ccccc2C(=O)O)c2nc(N3CCOCC3)cc(=O)n2c1 [AZD-6482]
IC50: > 5.12 µM
--
compound: CN1CCN(CCOc2cc(OC3CCOCC3)c3c(Nc4c(Cl)ccc5c4OCO5)ncnc3c2)CC1 [SARACATINIB]
IC50: > 2 µM
--
compound: CN(C)C/C=C/C(=O)Nc1cc2c(Nc3ccc(F)c(Cl)c3)ncnc2cc1O[C@H]1CCOC1 [AFATINIB]
IC50: > 0.5 µM
--
compound: C=CCc1cccc(/C=N/NC(=O)CN2CCN(Cc3ccccc3)CC2)c1O [PAC-1]
IC50: > 2.56 µM
--
compound: COC(=O)CNC(=O)C(=O)OC
IC50: > 4000 µM
--
compound: CC(=O)O[C@@H]1[C@@H](OC(C)=O)[C@@H](O)[C@H](Oc2c(-c3ccc(O)cc3)oc3cc(O)cc(O)c3c2=O)O[C@H]1C
IC50: 5.06 µM
--
compound: COc1ccc(-c2ccc3c(N4CCOC[C@@H]4C)nc(N4CCOC[C@@H]4C)nc3n2)cc1CO [AZD-8055]
IC50: > 2 µM
--
compound: CNC(=O)c1cc(Oc2ccc(NC(=O)Nc3ccc(Cl)c(C(F)(F)F)c3)cc2)ccn1 [SORAFENIB]
IC50: > 4 µM
--
compound: Cn1cc(C2=C(c3ccc(Cl)cc3Cl)C(=O)NC2=O)c2ccccc21 [SB-216763]
IC50: > 10 µM
--
compound: O=c1cc(-c2cccc3c2Sc2ccccc2S3)oc(N2CCOCC2)c1 [KU-55933]
IC50: > 10 µM
--
compound: C=CCNC1=C2C[C@@H](C)C[C@H](OC)[C@H](O)[C@@H](C)/C=C(\C)[C@H](OC(N)=O)[C@@H](OC)/C=C\C=C(/C)C(=O)NC(=CC1=O)C2=O [TANESPIMYCIN]
IC50: > 1 µM

Sourced from ChEMBL document CHEMBL1201861
